- system.tested: T1, human GPC3 (Glypican-3) (human, UniProt P51654 25-580)
- T1 construct: whole, on cells; The cell line of each value is named under assay
- experiment.notes: FACS on GPC3-CHO-K1 cells (CHO-K1 overexpressing human GPC3)
Parameter: pEC50. Scope: all listed entries.
FYI, pEC50 means -log10 of a concentration in mol per litre.

Exercise: Need pEC50 of Y035 CDRs with Hu 52H5D3B8-7 FRs (antibody, V domains shown, detected with anti-human IgG) VH: EVQLVQSGAEVKKPGASVKVSCKASGYTFTDYEMHWVRQAPGQGLEWMGAIHPGSGDTAYNQRFKGRVTMTADKSISTAYMELSRLRSDDTAVYYCTRFYSYAYWGQGTLVTVSS VL: DVVMTQTPLSLSVTPGQPASISCRSSQSLVHSNGNTYLQWYLQKPGQSPQLLIYKVSNRFSGVPDRFSGSGSGTDFTLKISRVEAEDVGVYYCSQSIYVPYTFGGGTKVEIK , thanks.
Solution: 9.04

Exercise: Need pEC50 of GC33 antibody (Chugai Pharmaceutical) (antibody, V domains shown, Control antibody; preparation described in US 7919086 B2; detected with anti-human IgG) VH: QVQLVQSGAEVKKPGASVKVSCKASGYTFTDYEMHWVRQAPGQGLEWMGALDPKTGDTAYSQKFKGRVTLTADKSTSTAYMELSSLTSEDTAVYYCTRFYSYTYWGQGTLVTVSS VL: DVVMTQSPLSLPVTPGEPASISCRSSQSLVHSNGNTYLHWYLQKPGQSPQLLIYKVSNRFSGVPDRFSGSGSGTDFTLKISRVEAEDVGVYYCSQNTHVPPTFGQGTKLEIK , thanks.
Solution: 9.02

Exercise: Need pEC50 of Hu 52H5D3B8-7 (antibody, human IgG1, kappa, V domains shown, also called humanized GPC3 antibody Hu 52H5D3B8-7) VH: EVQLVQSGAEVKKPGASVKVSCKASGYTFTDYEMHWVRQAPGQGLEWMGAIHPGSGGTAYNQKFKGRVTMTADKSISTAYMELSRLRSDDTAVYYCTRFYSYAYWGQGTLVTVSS VL: DVVMTQTPLSLSVTPGQPASISCRSSQSLVHSNGNTYLQWYLQKPGQSPQLLIYKVSNRFSGVPDRFSGSGSGTDFTLKISRVEAEDVGVYYCSQSIHVPYTFGGGTKVEIKR , thanks.
Solution: 9.35

Exercise: Need pEC50 of Hu 52H5D3B8-8 (antibody, human IgG1, kappa, V domains shown, also called humanized GPC3 antibody Hu 52H5D3B8-8; GPC3 antibody) VH: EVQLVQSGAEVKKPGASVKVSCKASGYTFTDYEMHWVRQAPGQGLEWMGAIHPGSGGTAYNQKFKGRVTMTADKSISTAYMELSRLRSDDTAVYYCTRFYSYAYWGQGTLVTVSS VL: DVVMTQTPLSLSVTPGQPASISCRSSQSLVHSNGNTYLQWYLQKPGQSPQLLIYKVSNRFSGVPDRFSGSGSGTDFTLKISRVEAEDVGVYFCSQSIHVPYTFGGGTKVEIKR , thanks.
Solution: 9.39

The measurements presented in this section are drawn from patent EP4775226A1.
